target: Muscarinic acetylcholine receptors; M2 & M3 (Homo sapiens) (UniProt P20309+P08172); experiment: Selectivity ratio of Ki for human muscarinic M3 receptor expressed in CHO-K9 cells to Ki for human muscarinic M2 receptor expressed in CHO-K9 cells; type: cell-based
Ratio Ki strictly less than 100 = class 1. Otherwise class 0.

Recorded results for 4 compounds are shown here.
SAMPLE_SMILES	CLASS_ASSIGNMENT
CC(=O)N[C@@H](CCCNC(=N)N)C(=O)NCCCCC1CCN(CC(=O)N2c3ccccc3NC(=O)c3ccccc32)CC1	class 0
N=C(N)NCCC[C@H](N)C(=O)NCCCCC1CCN(CC(=O)N2c3ccccc3NC(=O)c3ccccc32)CC1	class 0
CC(=O)N[C@@H](Cc1c[nH]c2ccccc12)C(=O)N[C@@H](C)C(=O)N[C@@H](Cc1ccc(O)cc1)C(=O)NCCCCC1CCN(CC(=O)N2c3ccccc3NC(=O)c3ccccc32)CC1	class 1
CCC(=O)NCCCCC1CCN(CC(=O)N2c3ccccc3NC(=O)c3ccccc32)CC1	class 1

Please check: Ratio Ki for CC(=O)N[C@@H](C)C(=O)N[C@@H](C)C(=O)NCCN1CCN(CCCCC2CCN(CC(=O)N3c4ccccc4NC(=O)c4ccccc43)CC2)CC1 , strictly under 100 or not?
class 0

---

This section presents compounds with their documented Ratio Ki values.
biological target: Muscarinic acetylcholine receptor M2 and M5 (Homo sapiens) (UniProt P08172+P08912); experiment: Selectivity ratio of Ki for human muscarinic M5 receptor expressed in CHO-K9 cells to Ki for human muscarinic M2 receptor expressed in CHO-K9 cells; format: cell-based
The reply should be a number, written without any unit.

SAMPLE_SMILES	Ratio Ki
CC(=O)N[C@@H](Cc1c[nH]c2ccccc12)C(=O)N[C@@H](Cc1ccc(O)cc1)C(=O)NCCCCC1CCN(CC(=O)N2c3ccccc3NC(=O)c3ccccc32)CC1	1.8
CC(=O)N[C@@H](CCCCN)C(=O)N[C@@H](CCCNC(=N)N)C(=O)NCC(=O)NCCCCC1CCN(CC(=O)N2c3ccccc3NC(=O)c3ccccc32)CC1	49

Next:
Look up and report Ratio Ki, with Muscarinic acetylcholine receptor M2 and M5 (Homo sapiens) (UniProt P08172+P08912) as system, for CC(=O)N[C@@H](Cc1ccc(O)cc1)C(=O)N[C@@H](CCCCN)C(=O)NCCCCC1CCN(CC(=O)N2c3ccccc3NC(=O)c3ccccc32)CC1
15

---

Molecular target: Muscarinic acetylcholine receptor M5 (Homo sapiens, UniProt P08912)
Sequence (P08912 whole entry): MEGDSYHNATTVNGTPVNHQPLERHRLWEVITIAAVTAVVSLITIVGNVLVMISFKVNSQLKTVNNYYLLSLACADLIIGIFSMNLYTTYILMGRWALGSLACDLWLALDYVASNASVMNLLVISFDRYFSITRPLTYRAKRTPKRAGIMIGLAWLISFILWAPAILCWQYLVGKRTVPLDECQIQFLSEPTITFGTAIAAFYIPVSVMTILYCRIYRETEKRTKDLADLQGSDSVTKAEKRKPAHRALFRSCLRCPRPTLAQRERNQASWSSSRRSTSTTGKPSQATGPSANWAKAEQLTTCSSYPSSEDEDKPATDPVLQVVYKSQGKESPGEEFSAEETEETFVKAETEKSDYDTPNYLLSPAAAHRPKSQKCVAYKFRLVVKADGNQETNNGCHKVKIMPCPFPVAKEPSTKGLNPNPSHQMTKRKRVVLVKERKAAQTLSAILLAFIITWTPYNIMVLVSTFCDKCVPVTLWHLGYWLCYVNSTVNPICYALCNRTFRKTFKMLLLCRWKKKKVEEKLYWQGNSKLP
Test: Displacement of [3H]-NMS from human muscarinic M5 receptor expressed in CHO-K9 cells after 3 hrs by microbeta2 scintillation counting method
Format: cell-based
PROPERTY_NAME: Ki (nM)
Report the value in nM with no unit label.

SAMPLE_SMILES	NUMERIC_RESULT
CC(=O)N[C@@H](CCCNC(=N)N)C(=O)N[C@@H](CCCCN)C(=O)NCC(=O)NCCCCC1CCN(CC(=O)N2c3ccccc3NC(=O)c3ccccc32)CC1	363
CC(=O)N[C@@H](Cc1c[nH]c2ccccc12)C(=O)N[C@@H](C)C(=O)N[C@@H](Cc1ccc(O)cc1)C(=O)NCCCCC1CCN(CC(=O)N2c3ccccc3NC(=O)c3ccccc32)CC1	120

Retrieve Ki measured for CC(=O)N[C@@H](Cc1ccc(O)cc1)C(=O)N[C@@H](C)C(=O)N[C@@H](CCCCN)C(=O)NCCCCC1CCN(CC(=O)N2c3ccccc3NC(=O)c3ccccc32)CC1 and print it.
209

Retrieve Ki measured for CC(=O)N[C@@H](Cc1ccc(O)cc1)C(=O)N[C@@H](CCCCN)C(=O)NCCCCC1CCN(CC(=O)N2c3ccccc3NC(=O)c3ccccc32)CC1 and print it.
708

Retrieve Ki measured for CC(=O)N[C@@H](CCC(N)=O)C(=O)N[C@@H](CC(C)C)C(=O)NCCCCC1CCN(CC(=O)N2c3ccccc3NC(=O)c3ccccc32)CC1 and print it.
1510

Retrieve Ki measured for CN1CC=C(c2nsnc2OCCCN2CCN(CCCCC3CCN(CC(=O)N4c5ccccc5NC(=O)c5ccccc54)CC3)CC2)CC1 and print it.
33.9

Retrieve Ki measured for CC(=O)N[C@@H](Cc1ccc(O)cc1)C(=O)N[C@@H](CCCCN)C(=O)NCCN1CCN(CCCCC2CCN(CC(=O)N3c4ccccc4NC(=O)c4ccccc43)CC2)CC1 and print it.
141

Retrieve Ki measured for CC(=O)N[C@@H](CCCCN)C(=O)N[C@@H](CCCNC(=N)N)C(=O)NCC(=O)NCCCCC1CCN(CC(=O)N2c3ccccc3NC(=O)c3ccccc32)CC1 and print it.
200

---

molecular target: Muscarinic acetylcholine receptors; M1 & M2 (Homo sapiens) (UniProt P11229+P08172); assay: Selectivity ratio of Ki for human muscarinic M1 receptor expressed in CHO-K9 cells to Ki for human muscarinic M2 receptor expressed in CHO-K9 cells; type: cell-based
Decide using Ratio Ki: a value greater than or equal to 6 is satisfied, a smaller one is not satisfied.

Recorded results for 5 compounds are shown here.
SAMPLE_SMILES	CLASS_ASSIGNMENT
CC(=O)N[C@@H](CCCCN)C(=O)N[C@@H](Cc1ccc(O)cc1)C(=O)NCCN1CCN(CCCCC2CCN(CC(=O)N3c4ccccc4NC(=O)c4ccccc43)CC2)CC1	satisfied
CC(=O)N[C@@H](Cc1c[nH]c2ccccc12)C(=O)N[C@@H](Cc1ccc(O)cc1)C(=O)NCCN1CCN(CCCCC2CCN(CC(=O)N3c4ccccc4NC(=O)c4ccccc43)CC2)CC1	satisfied
N=C(N)NCCC[C@H](N)C(=O)NCCCCC1CCN(CC(=O)N2c3ccccc3NC(=O)c3ccccc32)CC1	satisfied
CC(=O)N[C@@H](CCCCN)C(=O)N[C@@H](C)C(=O)N[C@@H](Cc1ccc(O)cc1)C(=O)NCCCCC1CCN(CC(=O)N2c3ccccc3NC(=O)c3ccccc32)CC1	satisfied
CC(=O)N[C@@H](CCCNC(=N)N)C(=O)N[C@@H](CCCCN)C(=O)NCC(=O)NCCCCC1CCN(CC(=O)N2c3ccccc3NC(=O)c3ccccc32)CC1	satisfied

As a next step, examine the compound that follows.
Could you please find out whether CCC(=O)NCCCCC1CCN(CC(=O)N2c3ccccc3NC(=O)c3ccccc32)CC1 has Ratio Ki that meets 6 or exceeds it?
not satisfied

---

Target: Muscarinic acetylcholine receptor M2 (Homo sapiens)
Sequence (P08172 whole entry): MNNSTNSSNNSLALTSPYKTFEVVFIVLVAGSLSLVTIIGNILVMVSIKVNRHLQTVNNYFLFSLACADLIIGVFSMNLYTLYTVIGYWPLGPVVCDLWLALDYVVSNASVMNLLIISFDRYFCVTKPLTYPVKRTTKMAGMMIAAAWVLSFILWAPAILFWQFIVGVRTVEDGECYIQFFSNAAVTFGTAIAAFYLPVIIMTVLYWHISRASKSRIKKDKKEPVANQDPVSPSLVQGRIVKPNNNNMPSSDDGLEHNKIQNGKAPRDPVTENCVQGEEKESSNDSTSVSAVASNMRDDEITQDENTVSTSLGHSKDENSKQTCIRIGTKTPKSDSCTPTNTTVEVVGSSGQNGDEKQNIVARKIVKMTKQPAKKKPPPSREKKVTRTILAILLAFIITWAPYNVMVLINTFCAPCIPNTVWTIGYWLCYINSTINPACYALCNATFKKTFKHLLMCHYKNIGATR
Assay: Binding affinity to muscarinic M2 receptor (unknown origin) expressed in CHO cells
Format: cell-based
PROPERTY_NAME: pKi
Just the number, please; pKi means minus log10 of the concentration in mol/L.

Retrieve pKi measured for CCCC(C)(C)C(=O)N(CC)CCCC1CCN(CC(=O)N2c3ccccc3NC(=O)c3ccccc32)CC1 and print it.
8.10

---

Molecular target: Muscarinic acetylcholine receptor M5 (Homo sapiens, UniProt P08912)
Sequence (P08912 whole entry): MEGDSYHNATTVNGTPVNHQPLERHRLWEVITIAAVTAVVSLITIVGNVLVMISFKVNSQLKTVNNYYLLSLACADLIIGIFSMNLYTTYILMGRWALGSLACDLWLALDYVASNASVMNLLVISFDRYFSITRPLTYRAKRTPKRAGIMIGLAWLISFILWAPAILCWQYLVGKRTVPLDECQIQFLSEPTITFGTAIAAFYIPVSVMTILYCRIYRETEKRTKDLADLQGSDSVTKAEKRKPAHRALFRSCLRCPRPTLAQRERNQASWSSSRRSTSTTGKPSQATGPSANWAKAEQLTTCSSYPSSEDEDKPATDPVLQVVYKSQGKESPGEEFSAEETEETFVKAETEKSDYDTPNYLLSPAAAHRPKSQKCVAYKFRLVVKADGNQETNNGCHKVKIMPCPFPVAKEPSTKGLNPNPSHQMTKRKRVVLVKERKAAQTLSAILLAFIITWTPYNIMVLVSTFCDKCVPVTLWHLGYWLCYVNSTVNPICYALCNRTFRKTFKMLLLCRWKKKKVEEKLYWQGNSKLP
Test: Displacement of [3H]-NMS from human muscarinic M5 receptor expressed in CHO-K1 cells by scintillation counting method
Type: cell-based
PROPERTY_NAME: pKi
Just the number, please; pKi means minus log10 of the concentration in mol/L.

Retrieve pKi measured for CCCC(C)(C)C(=O)N(CC)CCCC1CCN(CC(=O)N2c3ccc(Cl)cc3C(=O)Nc3cccnc32)CC1 and print it.
5.84

These measurements were taken from ChEMBL document CHEMBL4396879.
